Item-by-item account of Emax
target-system: recombinant human Meningioma Expressed Antigen 5 (MGEA5), also referred to as O-GlcNAcase (OGA) (Homo sapiens, UniProt O60502)
Construct: Full length OGA enzyme was purchased at OriGene (cat #TP322411); purchased OriGene TP322411
Sequence (O60502 whole entry): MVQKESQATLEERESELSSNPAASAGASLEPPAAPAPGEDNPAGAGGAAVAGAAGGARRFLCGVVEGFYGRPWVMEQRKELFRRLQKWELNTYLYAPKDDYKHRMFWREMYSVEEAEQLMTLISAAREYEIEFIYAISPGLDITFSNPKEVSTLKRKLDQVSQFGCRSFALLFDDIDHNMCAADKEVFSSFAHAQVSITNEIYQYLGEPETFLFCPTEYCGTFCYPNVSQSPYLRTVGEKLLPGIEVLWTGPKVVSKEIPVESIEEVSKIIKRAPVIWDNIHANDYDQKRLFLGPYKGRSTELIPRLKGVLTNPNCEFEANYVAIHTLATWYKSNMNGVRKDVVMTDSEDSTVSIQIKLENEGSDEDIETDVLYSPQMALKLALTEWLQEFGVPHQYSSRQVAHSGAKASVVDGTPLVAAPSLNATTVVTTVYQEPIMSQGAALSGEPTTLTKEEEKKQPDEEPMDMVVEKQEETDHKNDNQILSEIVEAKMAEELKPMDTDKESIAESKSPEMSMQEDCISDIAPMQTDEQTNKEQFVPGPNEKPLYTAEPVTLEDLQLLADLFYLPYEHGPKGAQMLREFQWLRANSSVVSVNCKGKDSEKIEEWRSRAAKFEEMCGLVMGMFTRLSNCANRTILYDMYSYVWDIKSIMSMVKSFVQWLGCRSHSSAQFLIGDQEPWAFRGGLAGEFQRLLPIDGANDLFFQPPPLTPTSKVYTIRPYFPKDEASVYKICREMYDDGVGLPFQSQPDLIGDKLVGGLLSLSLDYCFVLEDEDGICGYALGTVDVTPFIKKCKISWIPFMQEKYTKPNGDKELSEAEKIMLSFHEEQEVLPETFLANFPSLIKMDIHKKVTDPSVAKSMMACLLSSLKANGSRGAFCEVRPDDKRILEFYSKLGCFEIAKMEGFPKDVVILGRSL
assay-info: OGA biochemical assay (inhibition of FM-GlcNAc hydrolysis, fluorescence)
condition-label: FM-GlcNAc substrate, maximal effect, read-out: Enzymatic Emax (%)
measurement-type: Emax (%)

{"compound": "Cc1cc(C[C@H]2CCCN([C@@H](C)c3ccc4cn(C)nc4n3)C2)cc(C)n1 (relative stereo) [Compound 12a]", "unit-string": "%", "val": 88}
{"compound": "COc1cc(C2CCCN(C(C)c3ccc4oc(C)nc4n3)C2)cc(C)n1 (racemic)", "unit-string": "%", "val": 100}
{"compound": "Cc1cc(OC[C@H]2CCCN([C@@H](C)c3ccc4sc(C)nc4n3)C2)nc(C)n1 [Compound 49a]", "unit-string": "%", "val": 84}
{"compound": "COc1cc(C[C@H]2CCCN([C@H](C)c3ccc4oc(C)nc4n3)C2)cc(C)n1 (relative stereo) [Compound 23a]", "unit-string": "%", "val": 101}
